Recorded cAMP accumulation (HTRF): Emax values for a group of binders are listed next.
# testedOn: T1, PTHR1 on CHO-K1/Ga15/PTHR1 cells (UniProt Q03431 27-593, limits assumed)
# T1 sequence (looked up): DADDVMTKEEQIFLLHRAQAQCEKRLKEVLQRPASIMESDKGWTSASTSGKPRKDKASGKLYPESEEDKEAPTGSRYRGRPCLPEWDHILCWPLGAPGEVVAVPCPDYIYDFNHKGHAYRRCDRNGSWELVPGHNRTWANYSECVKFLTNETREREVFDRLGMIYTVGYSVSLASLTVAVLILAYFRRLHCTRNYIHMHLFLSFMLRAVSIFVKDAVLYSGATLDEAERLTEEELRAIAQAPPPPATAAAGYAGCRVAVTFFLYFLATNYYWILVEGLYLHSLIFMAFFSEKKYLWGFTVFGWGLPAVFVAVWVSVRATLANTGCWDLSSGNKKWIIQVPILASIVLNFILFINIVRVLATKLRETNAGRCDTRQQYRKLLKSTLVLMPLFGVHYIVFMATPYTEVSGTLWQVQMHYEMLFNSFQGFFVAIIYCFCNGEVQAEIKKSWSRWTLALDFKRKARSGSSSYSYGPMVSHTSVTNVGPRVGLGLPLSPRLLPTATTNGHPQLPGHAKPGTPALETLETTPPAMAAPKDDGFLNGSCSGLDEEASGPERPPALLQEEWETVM
# experimentalDetails: cell-based or functional assay
Please give a number only; it is taken to be in %.

binder	unitsSymbol	numericResult
AVAEIQLMHQRAKWKLDLELAVSLRKILEDVY [R2-27]	%	93.3
AVAEIQLMHQRAKWRAEYELREMLLRLLEEIF [R1-96]	%	99.7
GIAVFTIMHLRIYLRAEYELREMLLRLLEEIF [R2-17]	%	39.7

Output measured cAMP accumulation (HTRF): Emax for this item: GIAVLTILDLRAKLRAEYELREMLLRLLEEIF [R2-14] 117

Supply recorded cAMP accumulation (HTRF): Emax for AVAEIQLMHQRAKWRLEIELLKKLKEILKDVY [R2-34] here. 96.1

Kindly indicate its recorded cAMP accumulation (HTRF): Emax. Item: AVAEIQLMHQRAKWGLEIELLKLLLSLLKEYI [R2-45] 729

All values here come from patent US20220298217A1.
